Every entry's value here was drawn from patent US20220064302A1.

# Kd listing for each entry below
TARGET_DESC: T1, Cyno PD-1 (cyno)
T1 construct: also called cynomolgus PD-1
PROTOCOL_SUMMARY: BLI, mAb on AHC biosensor, cyno PD-1 as analyte
Provide the reading as a plain figure in nM.

| BINDER | OUTPUT_UNIT | Kd |
| --- | --- | --- |
| A8 (antibody, V domains shown, Tested as full-length mAb expressed in CHO cells; also called antibody A8; L8H8) VH: QVQLVESGGGVVQPGRSLRLSCAASGFTFSSYGMHWVRQAPGKGLEWVAVIWYDGSIKYYADSVKGRFTISRDNSKNTLYLQMNSLRAEDTAVYYCANDILTGSFDYWGQGTLVTVSS VL: EIVLTQSPATLSLSPGERATLSCRASQSVSSYLAWYQQKPGQAPRLLIYDASNRATGIPARFSGSGSGTDFTLTISSLEPEDFAVYYCQQRNTWPYTFGQGTKLEIKR | nM | 447 |
| A9 (antibody, V domains shown, Tested as full-length mAb expressed in CHO cells; also called antibody A9; L9H9) VH: QVQLVESGGGVVQPGRSLRLSCAASGFTFSNYGMHWVRQAPGKGLEWVAVIWYDGTNKFYADSVKGRFTISRDNSKNTLYLQMNSLRAEDTAVYYCATNSDDYWGQGTLVTVSS VL: AIQMTQSPSSLSASVGDRVTITCRASQDIRNDLGWYQQKPGKAPKLLIYAASLLRSGVPSRFSGSGSGTDFTLTISSLQPEDFATYYCLQDNNYPRTFGQGTKVEIK | nM | 42 |

Kindly consider the entry below.
Enquiry: State its Kd for this binder: A10 (antibody, V domains shown, Tested as full-length mAb expressed in CHO cells; also called antibody A10; L10H10) VH: QVQLVQSGAEVKKPGASVKVSCKASGYTFAIYGISWVRQAPGQGLEWMGWISAYSDNSNYAQKLQGRVTMTTDTSTSTAYMELRSLRSDDTAVYYCVRDGSHGDYYYGMDVWGQGTTVTVSS VL: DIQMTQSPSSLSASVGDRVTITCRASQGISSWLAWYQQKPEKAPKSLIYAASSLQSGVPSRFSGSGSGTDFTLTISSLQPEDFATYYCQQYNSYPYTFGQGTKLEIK
Return: 12
